Tested target: hMC3-R (Homo sapiens, UniProt P41968)
Construct: expressed in transfected cells; host or cells: CHO-K1
Sequence (P41968 whole entry): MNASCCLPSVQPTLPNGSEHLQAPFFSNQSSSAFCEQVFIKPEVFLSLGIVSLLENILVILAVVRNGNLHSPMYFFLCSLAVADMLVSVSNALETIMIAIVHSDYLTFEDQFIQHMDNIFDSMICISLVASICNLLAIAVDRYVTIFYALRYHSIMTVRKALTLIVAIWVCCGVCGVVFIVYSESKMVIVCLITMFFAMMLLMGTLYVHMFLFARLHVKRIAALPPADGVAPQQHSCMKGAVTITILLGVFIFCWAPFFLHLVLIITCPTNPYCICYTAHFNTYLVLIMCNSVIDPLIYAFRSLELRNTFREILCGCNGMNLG
Assay text: cyclic AMP bioassay (ECL) in CHO-K1 cells
Format: cell-based
pEC50: −log10 of the molar value.
Where pEC50 equals or exceeds 8, the correct label is condition met; where it does not, the label is condition not met.

[
  {
    "Query smiles": "C[C@H]1NC(=O)[C@@H](NC(=O)[C@H](CCCNC(=N)N)N2C(=O)CNC2=O)CSSC[C@@H](C(N)=O)NC(=O)[C@H](Cc2c[nH]c3ccccc23)NC(=O)[C@H](CCCNC(=N)N)NC(=O)[C@@H](Cc2ccccc2)NC(=O)[C@H](Cc2cnc[nH]2)NC1=O",
    "Tested target": "hMC3-R (Homo sapiens, UniProt P41968)",
    "Class label": "condition met"
  },
  {
    "Query smiles": "CCCC[C@@H](C(=O)N[C@H]1CSSC[C@@H](C(N)=O)NC(=O)[C@H](Cc2c[nH]c3ccccc23)NC(=O)[C@H](CCCNC(=N)N)NC(=O)[C@@H](Cc2ccccc2)NC(=O)[C@H](Cc2cnc[nH]2)NC(=O)[C@@H](C)NC1=O)N1C(=O)N[C@@H](C(C)C)C1=O",
    "Tested target": "hMC3-R (Homo sapiens, UniProt P41968)",
    "Class label": "condition met"
  },
  {
    "Query smiles": "C[C@H]1NC(=O)[C@@H](NC(=O)CN2C(=O)N[C@@H](CCCNC(=N)N)C2=O)CSSC[C@@H](C(N)=O)NC(=O)[C@H](Cc2c[nH]c3ccccc23)NC(=O)[C@H](CCCNC(=N)N)NC(=O)[C@@H](Cc2ccccc2)NC(=O)[C@H](Cc2cnc[nH]2)NC1=O",
    "Tested target": "hMC3-R (Homo sapiens, UniProt P41968)",
    "Class label": "condition not met"
  },
  {
    "Query smiles": "CCCC[C@H](NC(C)=O)C(=O)N[C@H]1CSSC(C)(C)[C@@H](C(N)=O)NC(=O)[C@H](Cc2c[nH]c3ccccc23)NC(=O)[C@H](CCCNC(=N)N)NC(=O)[C@@H](Cc2ccccc2)NC(=O)[C@H](Cc2c[nH]cn2)NC(=O)[C@@H](C)NC1=O",
    "Tested target": "hMC3-R (Homo sapiens, UniProt P41968)",
    "Class label": "condition met"
  },
  {
    "Query smiles": "C[C@@H]1NC(=O)N(CC(=O)N[C@H]2CSSC[C@@H](C(N)=O)NC(=O)[C@H](Cc3c[nH]c4ccccc34)NC(=O)[C@H](CCCNC(=N)N)NC(=O)[C@@H](Cc3ccccc3)NC(=O)[C@H](Cc3cnc[nH]3)NC(=O)[C@@H](C)NC2=O)C1=O",
    "Tested target": "hMC3-R (Homo sapiens, UniProt P41968)",
    "Class label": "condition met"
  },
  {
    "Query smiles": "CCCC[C@@H]1NC(=O)N(CC(=O)N[C@H]2CSSC(C)(C)[C@@H](C(N)=O)NC(=O)[C@H](Cc3c[nH]c4ccccc34)NC(=O)[C@H](CCCNC(=N)N)NC(=O)[C@@H](Cc3ccccc3)NC(=O)[C@H](Cc3cnc[nH]3)NC(=O)[C@@H](C)NC2=O)C1=O",
    "Tested target": "hMC3-R (Homo sapiens, UniProt P41968)",
    "Class label": "condition not met"
  },
  {
    "Query smiles": "CCCC[C@H](NC(C)=O)C(=O)N[C@H]1CSSC[C@@H](C(N)=O)NC(=O)[C@H](Cc2c[nH]c3ccccc23)NC(=O)[C@H](CCCNC(=N)N)NC(=O)[C@@H](Cc2ccccc2)NC(=O)[C@H](Cc2c[nH]cn2)NC(=O)[C@@H](C)NC1=O",
    "Tested target": "hMC3-R (Homo sapiens, UniProt P41968)",
    "Class label": "condition met"
  },
  {
    "Query smiles": "CCCC[C@H](NC(C)=O)C(=O)N[C@@H]1C(=O)N[C@H](C)C(=O)N[C@@H](Cc2c[nH]cn2)C(=O)N[C@H](Cc2ccccc2)C(=O)N[C@@H](CCCNC(=N)N)C(=O)N[C@@H](Cc2c[nH]c3ccccc23)C(=O)N[C@H](C(N)=O)CSSC1(C)C",
    "Tested target": "hMC3-R (Homo sapiens, UniProt P41968)",
    "Class label": "condition met"
  },
  {
    "Query smiles": "C[C@H]1NC(=O)[C@@H](NC(=O)CN2C(=O)CNC2=O)CSSC[C@@H](C(N)=O)NC(=O)[C@H](Cc2c[nH]c3ccccc23)NC(=O)[C@H](CCCNC(=N)N)NC(=O)[C@@H](Cc2ccccc2)NC(=O)[C@H](Cc2cnc[nH]2)NC1=O",
    "Tested target": "hMC3-R (Homo sapiens, UniProt P41968)",
    "Class label": "condition met"
  }
]
